biological target: 5-hydroxytryptamine receptor 2A (Homo sapiens); assay type: functional, cell-based; note: assay procedure not described here
Sequence (P28223 whole entry): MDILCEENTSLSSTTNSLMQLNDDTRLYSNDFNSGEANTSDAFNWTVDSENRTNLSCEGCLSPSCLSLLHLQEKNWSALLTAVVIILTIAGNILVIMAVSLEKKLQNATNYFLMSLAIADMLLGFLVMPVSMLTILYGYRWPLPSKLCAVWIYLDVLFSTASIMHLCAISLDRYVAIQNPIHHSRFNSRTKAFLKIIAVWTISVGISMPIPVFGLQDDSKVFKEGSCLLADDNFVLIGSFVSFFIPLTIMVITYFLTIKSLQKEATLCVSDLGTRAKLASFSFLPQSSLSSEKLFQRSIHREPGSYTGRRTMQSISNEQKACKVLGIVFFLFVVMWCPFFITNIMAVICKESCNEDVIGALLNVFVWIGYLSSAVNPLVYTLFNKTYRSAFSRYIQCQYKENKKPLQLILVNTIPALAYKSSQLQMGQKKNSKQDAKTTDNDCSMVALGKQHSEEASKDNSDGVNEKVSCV
measured_property: AC50

Look over these answered cases.
• CO[C@H]1C[C@H](O[C@H]2CC[C@@]3(C)[C@H](CC[C@@H]4[C@@H]3CC[C@]3(C)[C@@H](C5=CC(=O)OC5)[C@@H](OC(C)=O)C[C@]43O)C2)O[C@@H](C)[C@@H]1O = > 30 µM
• Clc1ccc(CCC(Cn2ccnc2)Sc2c(Cl)cccc2Cl)cc1 (stereo not given) = > 30 µM

With 5-hydroxytryptamine receptor 2A (Homo sapiens) as the test system, CNCCc1ccc(OC(=O)C(C)C)c(OC(=O)C(C)C)c1 showed AC50 of > 30 µM

With 5-hydroxytryptamine receptor 2A (Homo sapiens) as the test system, Cc1onc(-c2c(F)cccc2Cl)c1C(=O)N[C@@H]1C(=O)N2[C@@H]1SC(C)(C)[C@@H]2C(=O)O showed AC50 of > 30 µM

With 5-hydroxytryptamine receptor 2A (Homo sapiens) as the test system, C[C@]12C=CC(=O)C=C1CC[C@@H]1[C@@H]2CC[C@]2(C)OC(=O)CC[C@@H]12 showed AC50 of > 30 µM

With 5-hydroxytryptamine receptor 2A (Homo sapiens) as the test system, CC1=C(C(=O)OC(C)C)C(c2cccc([N+](=O)[O-])c2)C(C(=O)OC2CN(C(c3ccccc3)c3ccccc3)C2)=C(N)N1 (stereo not given) showed AC50 of > 30 µM

With 5-hydroxytryptamine receptor 2A (Homo sapiens) as the test system, O=C1OC(OC(=O)c2cccnc2Nc2cccc(C(F)(F)F)c2)c2ccccc21 (stereo not given) [TALNIFLUMATE] showed AC50 of > 30 µM

With 5-hydroxytryptamine receptor 2A (Homo sapiens) as the test system, O=C(O)c1ccc(NC(=O)[C@H](Cc2ccc(O)cc2)NC(=O)c2ccccc2)cc1 [BENTIROMIDE] showed AC50 of > 10 µM

====

target: Progesterone receptor (Homo sapiens); format: functional; note: assay procedure not described here
Sequence (P06401 whole entry): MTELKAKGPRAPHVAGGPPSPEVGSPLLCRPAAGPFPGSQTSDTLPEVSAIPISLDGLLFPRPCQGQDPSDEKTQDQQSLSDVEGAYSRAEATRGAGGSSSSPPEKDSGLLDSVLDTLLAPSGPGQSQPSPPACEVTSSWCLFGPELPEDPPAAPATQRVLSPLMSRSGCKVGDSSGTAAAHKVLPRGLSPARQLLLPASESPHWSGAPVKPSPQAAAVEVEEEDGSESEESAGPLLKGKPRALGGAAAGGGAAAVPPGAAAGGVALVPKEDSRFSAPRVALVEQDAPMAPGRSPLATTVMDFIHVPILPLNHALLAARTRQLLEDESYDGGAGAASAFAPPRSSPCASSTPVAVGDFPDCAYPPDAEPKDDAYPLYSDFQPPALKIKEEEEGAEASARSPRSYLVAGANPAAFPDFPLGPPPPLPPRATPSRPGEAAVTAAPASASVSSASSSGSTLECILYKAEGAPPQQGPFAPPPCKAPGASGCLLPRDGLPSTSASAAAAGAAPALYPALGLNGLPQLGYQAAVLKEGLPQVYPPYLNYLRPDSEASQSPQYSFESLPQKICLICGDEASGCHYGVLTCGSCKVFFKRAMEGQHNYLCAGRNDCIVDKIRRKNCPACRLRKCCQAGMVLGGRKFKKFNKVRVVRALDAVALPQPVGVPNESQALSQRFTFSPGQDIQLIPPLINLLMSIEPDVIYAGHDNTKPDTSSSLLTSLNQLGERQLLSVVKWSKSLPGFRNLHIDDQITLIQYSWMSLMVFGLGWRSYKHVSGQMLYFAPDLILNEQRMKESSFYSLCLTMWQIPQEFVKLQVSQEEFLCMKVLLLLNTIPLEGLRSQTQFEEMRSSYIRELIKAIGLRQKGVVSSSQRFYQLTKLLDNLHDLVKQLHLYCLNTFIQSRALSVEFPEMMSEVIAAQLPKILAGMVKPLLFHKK
measured_property: AC50

* Cc1onc(-c2c(F)cccc2Cl)c1C(=O)N[C@@H]1C(=O)N2[C@@H]1SC(C)(C)[C@@H]2C(=O)O | > 30 µM
* CO/N=C(\C(=O)N[C@@H]1C(=O)N2C(C(=O)O)=CCS[C@H]12)c1csc(N)n1 | > 30 µM
* CCOC(=O)c1ccc(N)cc1 | > 10 µM
* CNCCc1ccc(OC(=O)C(C)C)c(OC(=O)C(C)C)c1 | > 30 µM
* CC(C)Cc1ccc([C@H](C)C(=O)O)cc1 | > 30 µM

Note: attention shifts to another entry.
Notebook: CC(C)(O/N=C(\C(=O)N[C@@H]1C(=O)N2C(C(=O)[O-])=C(C[n+]3ccccc3)CS[C@H]12)c1csc(N)n1)C(=O)O , AC50 read as > 300 µM

====

Notes on AC50 obtained with Mu-type opioid receptor (Homo sapiens, UniProt P35372).
Sequence (P35372 whole entry): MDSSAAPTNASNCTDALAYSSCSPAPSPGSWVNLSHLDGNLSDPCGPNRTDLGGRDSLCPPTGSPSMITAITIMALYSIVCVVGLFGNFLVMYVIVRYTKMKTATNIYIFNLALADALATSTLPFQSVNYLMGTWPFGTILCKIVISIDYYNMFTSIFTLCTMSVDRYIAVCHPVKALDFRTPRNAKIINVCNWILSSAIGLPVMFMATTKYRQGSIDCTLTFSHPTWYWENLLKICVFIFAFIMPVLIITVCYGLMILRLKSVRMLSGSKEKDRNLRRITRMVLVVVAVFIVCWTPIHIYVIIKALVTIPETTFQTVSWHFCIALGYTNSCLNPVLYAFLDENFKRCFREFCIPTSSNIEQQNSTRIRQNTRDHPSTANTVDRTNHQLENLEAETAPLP

Look over these answered cases.
- C/C=C(/C(=C/C)c1ccc(O)cc1)c1ccc(O)cc1 [DIENESTROL]: > 30 µM
- CN(C)CCCN1c2ccccc2CCc2ccccc21 [IMIPRAMINE]: 8.1 µM
- COc1cc(N)c(Cl)cc1C(=O)NC1CCN(CCCOc2ccc(F)cc2)CC1OC (centres undefined) [CISAPRIDE]: > 30 µM

Notebook: CC(C)(O/N=C(\C(=O)N[C@@H]1C(=O)N2C(C(=O)[O-])=C(C[n+]3ccccc3)CS[C@H]12)c1csc(N)n1)C(=O)O [CEFTAZIDIME] , AC50 read as > 300 µM

Notebook: Cc1cc(=O)n(-c2ccccc2)n1C [ANTIPYRINE] , AC50 read as > 30 µM

Each recorded value in this set is attributed to ChEMBL document CHEMBL5291721.
